Source listed as PubChem BioAssay (NCI).

tested on: UACC-62 melanoma; test: NCI tumour cell line growth inhibition, 48 h
property: TGI

molecule: C=C1CC[C@@]2(OC1)OC1C[C@H]3[C@@H]4CC=C5C[C@@H](O)CC(OC6OCC(OC(=O)[C@@H](O)[C@@H](C)CC)C(OC(C)=O)C6OC6OC(C)C(O)C(O)C6O)[C@]5(C)[C@H]4CC[C@]3(C)C1[C@@H]2C (stereo partly drawn)
recorded_value: 3.37 µM
//
molecule: O=C(O)C1C(C(=O)O)C(C(=O)O)C1C(=O)O (stereo not drawn)
recorded_value: > 100 µM
//
molecule: COc1cccc(C2c3cc4c(cc3OC(N3CCCC3)C2C)OCO4)c1 (stereo not drawn)
recorded_value: 34.5 µM
//
molecule: C=C1C(=O)O[C@H]2[C@H]1CC/C(COC(=O)/C=C\C(=O)NCc1ccc(Cn3c(=O)sn(-c4ccc(C#N)cc4)c3=O)cc1)=C\CC[C@@]1(C)O[C@@H]21
recorded_value: 1.45 µM
//
molecule: CC[C@]12C=CCN3CC[C@@]4(c5ccc(OC)cc5N(C)[C@H]4[C@@](O)(C(=O)OC)[C@@H]1OC(C)=O)[C@@H]32
recorded_value: > 200 µM
//
molecule: Cc1cc(C)cc(Nc2cc(C)nc3nc(C(F)(F)F)nn23)c1
recorded_value: > 100 µM
//
molecule: C=C(C)[C@@H](C(=O)OC)N1C(=O)c2ccccc2C1=O
recorded_value: > 100 µM
//
molecule: O=c1[nH]c(=O)n(C2CC(O)C(CS)O2)cc1F (stereo not drawn)
recorded_value: > 100 µM
